- System: E. coli TESEC Mtb Asd
- protocol_details: growth (OD600 after 10 h); higher = more growth (less inhibition)
- protocol_conditions: arabinose induction (level): High; compound 0.1 mM; raw OD600 reference: median of DMSO wells 0.331, cell-free background 0.041
Structures can show the parent of a compound that is named as a salt.
metric: growth
Please reply with the number alone, leaving off any unit.

# annotated cases, reported growth shown
- compound: "CCN(CC)CCOc1ccc(C(=C(Cl)c2ccccc2)c2ccccc2)cc1 [Clomiphene citrate (Z,E)]"
  growth: 0.0496
- compound: "C#C[C@]1(O)CC[C@H]2[C@@H]3CCc4cc(O)ccc4[C@H]3CC[C@@]21C"
  growth: 0.112
- compound: "Cc1c(N(C)CS(=O)(=O)O)c(=O)n(-c2ccccc2)n1C"
  growth: 0.488

Please find the next compound below.
What growth value was documented for this compound, O=C(N/N=C/c1ccc([N+](=O)[O-])o1)c1ccc(O)cc1 [Nifuroxazide] ? 0.053

---

- System: E. coli TESEC Mtb Alr
- protocol_details: growth (OD600 after 10 h); higher = more growth (less inhibition)
- protocol_conditions: arabinose 1000 nM; compound 0.1 mM; raw OD600 reference: median of DMSO wells 0.294, cell-free background 0.041
Where a name gives a salt, the structure may show the parent alone.
Below: a set of entries, each annotated with reported growth.
Please state the value as a number alone, without comment.

// below: answered compounds
- compound: "NNCCc1ccccc1 [Phenelzine sulfate]"
  metric: "growth"
  quantitative_result: 0.285
- compound: "C#C[C@]1(O)CC[C@H]2[C@@H]3CCC4=Cc5oncc5C[C@]4(C)[C@H]3CC[C@@]21C [Danazol]"
  metric: "growth"
  quantitative_result: 0.168
- compound: "CCC[C@@H]1C[C@@H](C(=O)N[C@@H]([C@H]2O[C@H](SC)[C@H](O)[C@@H](O)[C@H]2O)[C@H](C)Cl)N(C)C1 [Clindamycin hydrochloride]"
  metric: "growth"
  quantitative_result: 0.048

Switching to the query record.
I have this compound here, Cc1cccc(CN2CCN(C(c3ccccc3)c3ccc(Cl)cc3)CC2)c1 (centres undefined) [Meclozine dihydrochloride] , and I need its recorded growth. 0.279

---

- Tested on: E. coli TESEC Alr+ wild-type control
- protocol_details: growth (OD600 after 10 h); higher = more growth (less inhibition)
- protocol_conditions: compound 0.1 mM; raw OD600 reference: median of DMSO wells 0.241, cell-free background 0.041
Where a name gives a salt, the structure may show the parent alone.
Entries and their growth
Answer field: number only, no words.

- molecule: "CC[C@H]1OC(=O)[C@H](C)[C@@H](O[C@H]2C[C@@](C)(OC)[C@@H](O)[C@H](C)O2)[C@H](C)[C@@H](O[C@@H]2O[C@H](C)C[C@H](N(C)C)[C@H]2O)[C@](C)(O)C[C@@H](C)[C@@H]2N[C@@H](COCCOC)O[C@H]([C@H]2C)[C@]1(C)O"
  metric: "growth"
  quantitative_result: 0.0424
- molecule: "Clc1ccc(COC(Cn2ccnc2)c2ccc(Cl)cc2Cl)c(Cl)c1 (centres undefined)"
  metric: "growth"
  quantitative_result: 0.0977
- molecule: "Cn1c(=O)c2[nH]cnc2n(C)c1=O"
  metric: "growth"
  quantitative_result: 0.246
- molecule: "CNCCC=C1c2ccccc2C=Cc2ccccc21"
  metric: "growth"
  quantitative_result: 0.182
- molecule: "CCN(CC)CC#CCOC(=O)C(O)(c1ccccc1)C1CCCCC1 (centres undefined) [Oxybutynin chloride]"
  metric: "growth"
  quantitative_result: 0.148

Value wanted: growth (E. coli TESEC Alr+ wild-type control) of entry CC(C)[C@H](N)C(=O)OCCOCn1cnc2c(=O)nc(N)[nH]c21 [Valacyclovir hydrochloride] 0.243

Another molecule: CC(C)(S)C(N)C(=O)O (racemic) 0.251

Next record, please: O=C1CN(/N=C/c2ccc(-c3ccc([N+](=O)[O-])cc3)o2)C(=O)N1 [Dantrolene sodium salt] 0.226

Moving on to CCc1oc2ccccc2c1C(=O)c1cc(Br)c(O)c(Br)c1 0.0407

Next up: CCn1cc(C(=O)O)c(=O)c2cnc(N3CCNCC3)nc21 0.116

Entry NCCc1ccc(O)c(O)c1 [Dopamine hydrochloride] please 0.199

---

- System: E. coli TESEC Mtb Alr
- protocol_details: growth (OD600 after 10 h); higher = more growth (less inhibition)
- protocol_conditions: arabinose 100 nM; compound 0.1 mM; raw OD600 reference: median of DMSO wells 0.413, cell-free background 0.052
Structures can show the parent of a compound that is named as a salt.
Returns one of rule met or rule not met; rule met when growth is >= 0.4.

Solved entries:
- compound: "COc1ccc(-c2cc(=S)ss2)cc1 [Anethole-trithione]"
  assigned_label: "rule met"
- compound: "CCCCCN(C)CCC(O)(P(=O)(O)O)P(=O)(O)O [Ibandronate sodium]"
  assigned_label: "rule met"
- compound: "Oc1c(I)cc(Cl)c2cccnc12 [Clioquinol]"
  assigned_label: "rule not met"

Identify whether the reported growth of the following compound is 0.4 or greater: Cc1nnc(SCC2=C(C(=O)O)N3C(=O)[C@@H](NC(=O)Cn4cnnn4)[C@H]3SC2)s1 [Cefazolin sodium salt] rule not met

Same for CN1CCC(=C2c3ccccc3Sc3ccccc32)CC1 [Pimethixene maleate] rule not met

Entry to check: Cc1cc(O)c(C(=O)N[C@@H](C(=O)N[C@@H]2C(=O)N3C(C(=O)O)=C(CSc4nnnn4C)CS[C@H]23)c2ccc(O)cc2)cn1 [Cefpiramide] rule met

Check COc1ccc2c(c1)c(CC(=O)OCC(=O)O)c(C)n2C(=O)c1ccc(Cl)cc1 [Acemetacin] too. rule not met

Try this compound next: CC(C)NNC(=O)c1ccncc1 [Iproniazide phosphate] rule met

---

- System: E. coli TESEC Alr+ wild-type control
- protocol_details: growth (OD600 after 10 h); higher = more growth (less inhibition)
- protocol_conditions: compound 0.1 mM; raw OD600 reference: median of DMSO wells 0.49, cell-free background 0.052
metric: growth
Lab note: jot down the number only; don't add units.

- compound: "CCC(=O)O[C@]1(C(=O)SCF)[C@H](C)C[C@H]2[C@@H]3C[C@H](F)C4=CC(=O)C=C[C@]4(C)[C@@]3(F)[C@@H](O)C[C@@]21C [Fluticasone propionate]"
  growth: 0.576
- compound: "OC[C@H]1O[C@@H](Oc2ccc(O)cc2)[C@H](O)[C@@H](O)[C@@H]1O"
  growth: 0.499
- compound: "C[C@H](N)[C@H](O)c1cccc(O)c1 [Metaraminol bitartrate]"
  growth: 0.573

Hello, I am looking for reported growth with E. coli TESEC Alr+ wild-type control for Cc1cc(-n2c(=O)[nH]c(=O)n(C)c2=O)ccc1Oc1ccc(SC(F)(F)F)cc1 . Could you help? 0.137

And COc1c(O[C@@H]2O[C@H](CO)[C@@H](O)[C@H](O)[C@H]2O)cc2c(c1OC)-c1ccc(SC)c(=O)cc1[C@@H](NC(C)=O)CC2 [Thiocolchicoside] ? 0.51

Please answer likewise for CC(=O)c1ccc2c(c1)N(CCCN1CCC(CCO)CC1)c1ccccc1S2 0.405

Entry CCCCOc1ccc(CC(=O)NO)cc1 please 0.437

---

- Test system: E. coli TESEC Alr+ wild-type control
- protocol_details: growth (OD600 after 10 h); higher = more growth (less inhibition)
- protocol_conditions: compound 0.1 mM; raw OD600 reference: median of DMSO wells 0.241, cell-free background 0.041
Counter-ions that a name gives are not always drawn.
metric: growth
Form rule: numeric answer, no unit written next to it.

- compound: "CN(C)CCn1nnnc1SCC1=C(C(=O)O)N2C(=O)[C@@H](NC(=O)Cc3csc(N)n3)[C@H]2SC1 [Cefotiam hydrochloride]"
  growth: 0.11
- compound: "Nc1nc(=O)c2c([nH]1)NC[C@@H](CNc1ccc(C(=O)N[C@@H](CCC(=O)O)C(=O)O)cc1)N2C=O [Folinic acid calcium salt]"
  growth: 0.255
- compound: "C=C(NC(=O)C(=C)NC(=O)c1csc(C2=N[C@@H]3c4csc(n4)[C@H]4NC(=O)c5csc(n5)[C@H]([C@](C)(O)[C@@H](C)O)NC(=O)[C@H]5CSC(=N5)/C(=C/C)NC(=O)[C@H]([C@@H](C)O)NC(=O)c5csc(n5)[C@]3(CC2)NC(=O)[C@H](C)NC(=O)C(=C)NC(=O)[C@H](C)NC(=O)[C@H]([C@@H](C)CC)N[C@@H]2C=Cc3c([C@H](C)O)cc(nc3[C@H]2O)C(=O)O[C@@H]4C)n1)C(N)=O"
  growth: 0.297
- compound: "CC(=O)N(CC(C)C(=O)O)c1c(I)cc(I)c(N)c1I (stereo unspecified)"
  growth: 0.213
- compound: "CN[C@H]1CC[C@@H](c2ccc(Cl)c(Cl)c2)c2ccccc21"
  growth: 0.0407

Item Clc1ccc(COC(Cn2ccnc2)c2ccc(Cl)cc2Cl)cc1 (stereo unspecified) [Econazole nitrate] with E. coli TESEC Alr+ wild-type control - growth? 0.0521
